- Test system: BTK;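 note: KINOMEscan kinase panel screen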
- Experimental context: concentration: 1 μM, replicates: in singlicate; n = 1
Entries and their %Inh
Observation type: %Inh (%)

INSERT INTO measurements (molecule, observation_type, result_unit, reported_result) VALUES
  ('COc1ccc(CNC(=O)NC2CCN(c3ccnc(Nc4ccc(F)cc4)n3)CC2)cc1 [GSK1379788]', '%Inh', '%', 0),
  ('CNC(=O)c1ccccc1Nc1nc(Nc2ccc(N3CCOCC3)cc2)ncc1Cl.Cl [GSK1576028]', '%Inh', '%', 96.9),
  ('Nc1ncc(-c2ccc3nccc(-c4ccncc4)c3c2)cc1S(=O)(=O)N1CCOCC1 [GSK1627798]', '%Inh', '%', 0),
  ('O=C(Nc1cccc(Oc2ccc3nc(NC(=O)C4CC4)cn3n2)c1)c1ccccc1C(F)(F)F', '%Inh', '%', 16),
  ('Cl.Cl.NCC(C(=O)Nc1cc(Br)c(-c2ccnc3[nH]ccc23)s1)c1ccccc1 (centres unmarked) [GSK1269851]', '%Inh', '%', 0);
